Data credit: patent US20140315886A1

- System name: purified STEP46 enzyme (Homo sapiens, UniProt P54829)
- Sequence (P54829 197-565 limits assumed): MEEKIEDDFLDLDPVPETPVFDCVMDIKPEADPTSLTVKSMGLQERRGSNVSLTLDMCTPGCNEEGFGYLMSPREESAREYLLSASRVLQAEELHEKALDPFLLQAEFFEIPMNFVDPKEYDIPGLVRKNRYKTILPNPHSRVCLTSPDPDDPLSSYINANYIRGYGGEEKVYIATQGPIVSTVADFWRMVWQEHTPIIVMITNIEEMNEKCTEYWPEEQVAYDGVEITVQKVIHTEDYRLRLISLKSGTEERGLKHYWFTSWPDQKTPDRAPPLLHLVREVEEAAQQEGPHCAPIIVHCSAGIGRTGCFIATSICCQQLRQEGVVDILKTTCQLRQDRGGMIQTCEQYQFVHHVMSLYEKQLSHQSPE
Parameter: IC50

Known IC50 results, listed for orientation:
| Chemical string | Parameter | Observed value |
| --- | --- | --- |
| CNc1nc(-c2cncc(C#N)c2)nc2cc(-c3cc(F)ccc3F)ccc12 | IC50 | 1 to 10 µM |
| Fc1cccc(-c2ccc3nc(-c4cccnc4)nc(NCCc4ccccn4)c3c2)c1 | IC50 | 1 to 10 µM |

Turning now to a further record.
// returns reported IC50 for input CNc1nc(-c2cccnc2)nc2c(OC)cc(-c3ccccc3F)cc12
1 to 10 µM
